Cited source for all entries: ChEMBL document CHEMBL3862013

Tested on: Vesicular stomatitis virus
METHOD DESCRIPTION: Antiviral activity against G-glycoprotein expressing VSV
Type: functional
OBSERVATION TYPE: IC50 (µM)
Please state the figure in µM; there is no need to write the unit.

Prompt: Dear colleague, I am looking for the recorded IC50 of the following molecule: Cc1nc([C@H](NC(=O)c2ccc(-c3ccc(Cl)cc3)[nH]2)[C@@H]2CCCCN2)sc1CO
Response: 7.1

====

METHOD DESCRIPTION: Cytotoxicity against human MT2 cells after 4 days by XTT assay
Type: toxicity, cell-based
CONDITION SUMMARY: mt2, 96 h
OBSERVATION TYPE: CC50 (µM)
Please state the figure in µM; there is no need to write the unit.

Answered cases to consult:
| SMILES CODE | READING UNIT | CC50 |
| --- | --- | --- |
| Cc1nc([C@H](NC(=O)c2ccc(-c3ccc(Cl)c(F)c3)[nH]2)[C@@H]2CCCCN2)sc1CCO | µM | 16.8 |
| Cc1nc([C@@H](NC(=O)c2ccc(-c3ccc(Cl)cc3)[nH]2)[C@@H]2CCCCN2)sc1CCO | µM | 26.8 |
| Cc1nc([C@@H](CN)NC(=O)c2ccc(-c3ccc(Cl)c(F)c3)[nH]2)sc1CO | µM | 22.7 |
| Cc1ccc(-c2ccc(C(=O)N[C@@H](c3nc(C)c(CCCO)s3)[C@@H]3CCCCN3)[nH]2)cc1F | µM | 20.6 |
| Cc1nc([C@H](NC(=O)c2ccc(-c3ccc(Cl)c(F)c3)[nH]2)[C@@H]2CCCCN2)sc1CCCO | µM | 12.6 |
| Cc1ccc(-c2ccc(C(=O)N[C@H](c3nc(C)c(CCO)s3)[C@@H]3CCCCN3)[nH]2)cc1F | µM | 29.7 |
| Cc1nc([C@@H](NC(=O)c2ccc(-c3ccc(Cl)c(F)c3)[nH]2)[C@@H]2CCCCN2)sc1CCO | µM | 16.9 |
| Cc1nc([C@H](CN)NC(=O)c2ccc(-c3ccc(Cl)cc3)[nH]2)sc1CO | µM | 25.8 |
| Cc1ccc(-c2ccc(C(=O)N[C@H](CN)c3nc(C)c(CO)s3)[nH]2)cc1F | µM | 24.3 |
| Cc1nc([C@H](NC(=O)c2ccc(-c3ccc(Cl)cc3)[nH]2)[C@@H]2CCCCN2)sc1CCCO | µM | 19 |

Prompt: Dear colleague, I am looking for the recorded CC50 of the following compound: Cc1nc([C@H](NC(=O)c2ccc(-c3ccc(Cl)c(F)c3)[nH]2)[C@H]2CCCCN2)sc1CO
Response: 26

Prompt: Request: Cc1nc([C@H](NC(=O)c2ccc(-c3ccc(Cl)cc3)[nH]2)[C@@H]2CCCCN2)sc1CO
Response: 24.8

Prompt: Request: Cc1nc([C@H](CN)NC(=O)c2ccc(-c3ccc(Cl)c(F)c3)[nH]2)sc1CO
Response: 30.5

Prompt: Request: Cc1ccc(-c2ccc(C(=O)N[C@@H](c3nc(C)c(CCO)s3)[C@@H]3CCCCN3)[nH]2)cc1F
Response: 21.2
